B1: C8orf76 (parent)
chain: KLAEAYLNLGPALSAALASSQKQH

- Variants of: B1
- test_protocol: protein stability index of a GFP-peptide fusion (GPS, HEK-293T) (PSI 1-6); higher = more stable;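 note: lentivirally expressed fusions sorted by FACS into six bins by GFP to DsRed ratio, PSI derived from sequencing read proportions per bin multiplied by bin number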
- settings: c terminus: a fixed tail appended
Kind request: treat 3 as inclusive, so protein stability index at 3 or higher is Criterion met, anything lower is Criterion not met.

Assess whether reported protein stability index for A18S sits at 3 or higher.
Criterion not met

Assess whether reported protein stability index for S20E sits at 3 or higher.
Criterion not met

Assess whether reported protein stability index for K22N sits at 3 or higher.
Criterion not met

Assess whether reported protein stability index for A15G sits at 3 or higher.
Criterion not met

Assess whether reported protein stability index for L17M sits at 3 or higher.
Criterion not met

Assess whether reported protein stability index for S20I sits at 3 or higher.
Criterion met

Assess whether reported protein stability index for N8T sits at 3 or higher.
Criterion met

Assess whether reported protein stability index for L13M sits at 3 or higher.
Criterion not met

Assess whether reported protein stability index for E4K sits at 3 or higher.
Criterion not met

Assess whether reported protein stability index for L9A sits at 3 or higher.
Criterion met

Assess whether reported protein stability index for S19V sits at 3 or higher.
Criterion not met
